assay: Half life in CD-1 mouse at 1 mg/kg, po or 0.5 mg/kg, iv; assay type: ADME, organism-based; conditions: in vivo
endpoint_label: half-life (h)
// units = h; emit number, no label

Suppose we examine the compound CNC(=O)c1ccc(N2CCN(Cc3ccc4nc(C)c(=O)[nH]c4c3F)CC2)c(F)n1 ; what half-life value has been reported?
4

---

test: Half life in Beagle dog at 1 mg/kg, po or 1 mg/kg, iv; type: ADME, organism-based, Canis lupus familiaris; conditions: in vivo
endpoint_label: half-life
Answer shape: numeric part, then the unit.

Would you kindly share the measured half-life for CNC(=O)c1ccc(N2CCN(Cc3ccc4nc(C)c(=O)[nH]c4c3F)CC2)c(F)n1 [AZD-9574] ?
12 h

---

Overview of recorded efflux ratio for various compounds
test system: MDR1 (P-gp), BCRP; test: Efflux ratio in MDCK-MDR1-BCRP cells; assay type: ADME, cell-based, Canis lupus familiaris; conditions: dog
Returns: the value as a bare number; no unit string appended.

Worked examples follow.
compound_structure: CCc1nc2ccc(CN3CCN(c4cnc(F)cc4C)CC3)cc2[nH]c1=O
recorded_result: 1
--
compound_structure: CCc1nc2ccc(CN3CCN(c4ccc(F)nc4C)CC3)cc2[nH]c1=O
recorded_result: 1.3
--
compound_structure: CCc1nc2ccc(CN3CCN(c4ccc(C(=O)NC)nc4C)CC3)cc2[nH]c1=O
recorded_result: 2.2
--
compound_structure: CCc1nc2ccc(CN3CCN(c4ccc(C(=O)NC)nc4F)CC3)cc2[nH]c1=O
recorded_result: 2
--
compound_structure: CCc1nc2ccc(CN3CCN(c4ccc(C(=O)NC)nc4Cl)CC3)cc2[nH]c1=O
recorded_result: 6.7
--
compound_structure: CNC(=O)c1ccc(N2CCN(Cc3ccc4nc(C)c(=O)[nH]c4c3)CC2)c(F)n1
recorded_result: 3.6
--
compound_structure: CCc1cc2ccc(CN3CCN(c4ccc(C(=O)NC)nc4)CC3)cc2[nH]c1=O
recorded_result: 2.8
--
compound_structure: CNC(=O)c1ccc(N2CCN(Cc3ccc4nc(C)c(=O)[nH]c4c3F)CC2)c(C)n1
recorded_result: 1.6

Record request: efflux ratio value, item CNC(=O)c1ccc(N2CCN(Cc3ccc4c5c(c(=O)[nH]c4c3)COCC5)CC2)cn1
6.8

I would be grateful if you could share the reported efflux ratio for CCc1nc2ccc(CN3CCN(c4ccc(C(=O)NC)nc4F)CC3)c(Cl)c2[nH]c1=O .
0.4

Entry CCc1nc2ccc(CN3CCN(c4ccc(F)nc4)CC3)cc2[nH]c1=O : reported efflux ratio = ?
0.5

---

experiment: Half life in Han Wistar rat at 1 mg/kg, po or 1 mg/kg, iv; format: ADME, organism-based; details: in vivo
endpoint_label: half-life
// unit must come after the numeric part

Could you tell me which half-life is on file for CNC(=O)c1ccc(N2CCN(Cc3ccc4nc(C)c(=O)[nH]c4c3F)CC2)c(F)n1 [AZD-9574] ?
6.3 h

---

molecular target: hERG (KCNH2) (Homo sapiens); assay: Inhibition of hERG transfected in CHO cells by electrophysiology; assay type: toxicity, cell-based; settings: human, CHO cells transfected with hERG
Sequence (Q12809 whole entry): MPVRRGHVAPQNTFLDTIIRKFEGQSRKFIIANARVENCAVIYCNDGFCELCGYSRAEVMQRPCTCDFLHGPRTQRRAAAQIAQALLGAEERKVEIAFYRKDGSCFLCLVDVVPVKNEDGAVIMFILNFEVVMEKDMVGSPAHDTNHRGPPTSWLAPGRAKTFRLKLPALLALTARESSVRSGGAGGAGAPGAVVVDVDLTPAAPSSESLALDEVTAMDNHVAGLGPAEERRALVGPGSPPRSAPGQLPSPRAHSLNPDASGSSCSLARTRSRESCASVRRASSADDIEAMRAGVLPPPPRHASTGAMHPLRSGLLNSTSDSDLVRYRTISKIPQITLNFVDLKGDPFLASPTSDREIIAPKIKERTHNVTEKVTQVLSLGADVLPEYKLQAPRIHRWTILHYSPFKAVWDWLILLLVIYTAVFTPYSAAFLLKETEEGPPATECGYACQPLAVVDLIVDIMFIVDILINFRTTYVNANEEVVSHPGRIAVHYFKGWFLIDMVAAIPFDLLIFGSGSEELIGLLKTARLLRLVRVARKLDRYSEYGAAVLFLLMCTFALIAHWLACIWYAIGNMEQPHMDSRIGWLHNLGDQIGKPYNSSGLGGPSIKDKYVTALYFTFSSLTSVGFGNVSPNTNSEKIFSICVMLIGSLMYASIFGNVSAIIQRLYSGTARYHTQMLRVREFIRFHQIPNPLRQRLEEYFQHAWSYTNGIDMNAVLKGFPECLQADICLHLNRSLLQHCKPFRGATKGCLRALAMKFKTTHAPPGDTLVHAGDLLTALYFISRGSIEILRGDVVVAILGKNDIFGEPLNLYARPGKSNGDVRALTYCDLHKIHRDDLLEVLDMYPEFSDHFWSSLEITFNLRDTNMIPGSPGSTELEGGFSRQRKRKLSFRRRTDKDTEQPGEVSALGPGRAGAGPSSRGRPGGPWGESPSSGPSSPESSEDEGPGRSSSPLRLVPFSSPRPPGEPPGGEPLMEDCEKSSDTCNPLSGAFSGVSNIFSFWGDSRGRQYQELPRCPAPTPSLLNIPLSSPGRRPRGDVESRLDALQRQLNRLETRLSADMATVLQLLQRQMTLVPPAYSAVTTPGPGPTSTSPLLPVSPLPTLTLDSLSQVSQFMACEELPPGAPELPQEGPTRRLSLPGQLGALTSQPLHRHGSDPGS
Measured IC50, listed per entry for reference.

Would you please look over these solved cases?
compound: CNC(=O)c1ccc(N2CCN(Cc3ccc4nc(C)c(=O)[nH]c4c3F)CC2)c(C)n1
recorded_result: > 40 µM
--
compound: CCc1cc2ccc(CN3CCN(c4ccc(C(=O)NC)nc4)CC3)cc2[nH]c1=O
recorded_result: 21 µM
--
compound: CNC(=O)c1ccc(N2CCN(Cc3ccc4nc(C)c(=O)[nH]c4c3F)CC2)c(F)n1 [AZD-9574]
recorded_result: > 40 µM
--
compound: CCc1cc2ncc(CN3CCN(c4ccc(C(=O)NC)nc4)CC3)cc2[nH]c1=O [SARUPARIB]
recorded_result: > 40 µM
--
compound: CCc1nc2ccc(CN3CCN(c4ccc(C(=O)NC)nc4F)CC3)c(F)c2[nH]c1=O
recorded_result: > 40 µM

# context switch: different compound, same IC50
What value of IC50 has been reported for the following compound? CCc1nc2ccc(CN3CCN(c4ccc(C(=O)NC)nc4F)CC3)c(Cl)c2[nH]c1=O
> 40 µM
